For reference, the following pKi results for 5-hydroxytryptamine receptor 7 (Homo sapiens) were taken from various sources.
As a rule, pKi stands for the negative log10 of the concentration, concentration in M.

// assay 5-hydroxytryptamine receptor 7 (Homo sapiens), entry O=C1Nc2cc(F)ccc2C1CCCCN1CCN(c2ccccn2)CC1 (configuration not stated) , pKi value = 7.77

// assay 5-hydroxytryptamine receptor 7 (Homo sapiens), entry NC(N)=NC(=O)c1ccc2c(c1)Nc1ccccc1O2 , pKi value = 6.84

// assay 5-hydroxytryptamine receptor 7 (Homo sapiens), entry Cc1cccc(S(=O)(=O)N[C@@H]2CCN(CCCc3noc4cc(F)ccc34)C2)c1 , pKi value = 8.77

// assay 5-hydroxytryptamine receptor 7 (Homo sapiens), entry CC(Oc1cc(F)ccc1C(F)(F)F)c1nc(N)nc(N2CCN(C)CC2)n1 (configuration not stated) , pKi value = 4.53

// assay 5-hydroxytryptamine receptor 7 (Homo sapiens), entry COc1ccc2[nH]cc(CCNCc3ccc(-c4cn[nH]c4)o3)c2c1 , pKi value = 5.82

// assay 5-hydroxytryptamine receptor 7 (Homo sapiens), entry C[C@H](Nc1cncc(NCCOc2ccc(F)cc2)c1)c1ccccc1 , pKi value = 8.40

###

For reference, the following log10(Ki) results for 5-hydroxytryptamine receptor 7 (Homo sapiens, UniProt P34969) were taken from various sources.
// stored as log10 of Ki expressed in nM

Check out these entries, answers already filled in.
1) CCCOC1CCCc2ccc(/N=C/N3CCc4cc(OC)c(OC)cc4C3)cc21 (stereo not given)
3.72
2) COc1ccc2[nH]cc(CCNCc3ccc(-c4ccc(O)cc4)o3)c2c1
2.31
3) O=c1c2ccccc2ncn1CCCCCN1CCN(Cc2ccccc2)CC1
3.03

// moving on: another record for log10(Ki)
Reported log10(Ki) of CC(C)c1ccccc1OCCN1CCC(NS(=O)(=O)c2ccccc2)CC1 : 1.62

###

For reference, the following Ki results for 5-hydroxytryptamine receptor 7 (Homo sapiens) were taken from various sources.
Please give a number only; it is taken to be in nM.

Check out these entries, answers already filled in.
1. COc1ccc2[nH]cc(CCNCc3ccc(-c4cccc(O)c4)o3)c2c1
3150
2. CCOc1ccccc1C(=O)NC1CCN(CCOc2cccc(-c3ccccc3)c2)C1 (stereo not given)
1100
3. O=S(=O)(NCCCCN1CCN(c2ccc(Cl)cc2)CC1)c1ccc2cccnc2c1
381
4. O=S(=O)(NC1CCN(CCOc2ccccc2-c2ccccc2)C1)c1ccc(F)cc1 (stereo not given)
5
5. NC(=O)[C@@H]1CCCN1C(=O)CCCCCN1CCN(c2ccccc2Cl)CC1
1310

Reported Ki of COc1ccc(-n2c(=O)n(CCN3CCN(c4ccccc4)CC3)c3ccccc32)cc1 : 566

Reported Ki of NC(=O)[C@@H]1Cc2ccccc2CN1C(=O)CCCCN1CCN(c2ccc(Cl)cc2)CC1 : 223

Reported Ki of COc1ccc(-c2ccccc2CNC(=O)CCCCN2CCN(c3ccccc3OC)CC2)cc1 : 43.7

###

For reference, the following pKi results for 5-hydroxytryptamine receptor 7 (Homo sapiens) were taken from various sources.
pKi: −log10 of the molar value.
Label 1 when pKi is at or above 8; otherwise label -1.

1) CN1CCN(c2nc(N)nc(C(C)(C)Sc3ccccc3Cl)n2)CC1
-1
2) Oc1ccc(-c2ccc(CNCCc3c[nH]c4ncc(F)cc34)o2)cc1
-1
3) O=C1Nc2ccc(F)cc2C1CCCCN1CCN(c2ccc(Cl)cc2)CC1 (stereo unspecified)
-1
4) O=c1n(CCN2CCN(c3ccccc3)CC2)c2ccccc2n1-c1ccccc1
-1
5) Cl.NC(N)=NC(=O)c1ccc2c(c1)C1(CCCC1)c1ccccc1-2
1

Req: Would you say O=C1Nc2cccc3c2C1(CCCCN1CCc2ccccc2C1)CCC3 (stereo unspecified) shows pKi at minimum 8?
Resp: 1

Req: Would you say CC(Oc1cccc(F)c1F)c1nc(N)nc(N2CCN(C)CC2)n1 (stereo unspecified) shows pKi at minimum 8?
Resp: -1

Req: Would you say CC(C)c1ccccc1OCCN1CCC(NS(=O)(=O)c2cccs2)C1 (stereo unspecified) shows pKi at minimum 8?
Resp: -1

Req: Would you say Cc1ccc2c(OCCN3CCC(Cc4ccc5c(c4)NC(=O)CO5)CC3)cccc2n1 shows pKi at minimum 8?
Resp: -1

Req: Would you say Fc1ccc(N2CCN(CCCc3c[nH]c4ccc(F)cc34)CC2)c(-c2ccsc2)c1 shows pKi at minimum 8?
Resp: 1

Req: Would you say O=c1c(-c2ccc(F)cc2)c2n(c(=O)n1CCCCN1CCCC(c3c[nH]c4ccc(F)cc34)C1)CCCC2 (stereo unspecified) shows pKi at minimum 8?
Resp: -1

Req: Would you say Oc1ccc(-c2ccc(CNCCc3c[nH]c4ccc(F)cc34)o2)cc1 shows pKi at minimum 8?
Resp: -1

Req: Would you say CC1(O)c2ccccc2-c2ccc(C(=O)N=C(N)N)cc21.Cl (stereo unspecified) shows pKi at minimum 8?
Resp: 1

Req: Would you say CCc1cccc2c1-c1ccc(C(=O)N=C(N)N)cc1C2O (stereo unspecified) shows pKi at minimum 8?
Resp: 1
